Tested on: HEK-293T
Assay comment: Multiplex assay against HEK293T
Format: toxicity, cell-based
Applied conditions: human, 24 h, 10 µM, compound concentration 10 uM, replicate 2
Below is a list of entries, each paired with its recorded Population Healthy Nuclei (%) value.
Endpoint name: Population Healthy Nuclei (%)

[[record]]
molecule = "O=C(Nc1cc(-c2ccccc2)nn1-c1ccccc1F)c1ccc([N+](=O)[O-])cc1"
measurement_unit = "%"
value_measured = 83

[[record]]
molecule = "Cc1cc(-c2ccc3c(c2)CC[C@H]3N2CC3(CCN(C(=O)Cc4cn5cc(C)sc5n4)CC3)C2)ncn1 [PF-5190457]"
measurement_unit = "%"
value_measured = 81

[[record]]
molecule = "Cl.Cl.OCCOCCN1CCN(C(c2ccccc2)c2ccc(Cl)cc2)CC1 (centres undefined) [HYDROXYZINE HYDROCHLORIDE]"
measurement_unit = "%"
value_measured = 71

[[record]]
molecule = "C[C@H](NC(=O)CNC(=O)c1cccc(Cl)c1)c1ccccc1"
measurement_unit = "%"
value_measured = 78


###

Test system: Fibroblast
Assay comment: Multiplex assay against human fibroblast
Format: toxicity, cell-based
Applied conditions: 12 h, 10 µM, compound concentration 10 uM, replicate 1
Record Satisfied whenever Population Hoechst High Intensity Objects (%) is at 2% or higher; record Not satisfied when lower.

[[record]]
compound = "OCCCNc1cc(-c2ccnc(Nc3cccc(Cl)c3)n2)ccn1"
label_value = "Satisfied"

[[record]]
compound = "COc1cc(Nc2ncc3c(n2)-c2ccc(Cl)cc2C(c2c(F)cccc2OC)=NC3)ccc1C(=O)O"
label_value = "Satisfied"

[[record]]
compound = "CCn1c(-c2nc3cc(C(=O)N4CCCC(N)C4)ccc3n2C)cc2ccccc21.Cl (configuration not stated)"
label_value = "Not satisfied"

[[record]]
compound = "COc1cc2nc(N3CCN(C(=O)c4ccco4)CC3)nc(N)c2cc1OC.Cl [PRAZOSIN HYDROCHLORIDE]"
label_value = "Not satisfied"

[[record]]
compound = "CCc1nn2c(C)cc(C)nc2c1Cc1ccc(-c2nnc(C3CCNCC3)o2)cc1"
label_value = "Satisfied"

[[record]]
compound = "COc1cc2nc(N3CCN(C(=O)COc4c(OC)cccc4C(C)C)CC3)nc(N)c2cc1OC.Cl.Cl"
label_value = "Satisfied"

[[record]]
compound = "CCCCCCNC(=O)Nc1ccc(S(=O)(=O)Nc2ccc(CCNC[C@H](O)COc3ccc(O)cc3)cc2)cc1"
label_value = "Satisfied"

[[record]]
compound = "Cc1cc(=O)n(C)c2cc(N3C(=O)CC[C@H](NS(=O)(=O)CC(C)C)[C@H]3c3ccc(Cl)cc3)ccc12"
label_value = "Satisfied"

[[record]]
compound = "CCCCC[C@H](O)/C=C/[C@H]1[C@H](O)CC(=O)[C@@H]1CCCCCCC(=O)O"
label_value = "Satisfied"

[[record]]
compound = "Cc1sc2c(c1C)C(c1ccc(Cl)cc1)=N[C@H](CC(=O)OC(C)(C)C)c1nnc(C)n1-2"
label_value = "Satisfied"

[[record]]
compound = "CC(C)C[C@H](CO)Nc1nc(S[C@@H](C)c2ccccc2)nc2nc(N)sc12"
label_value = "Satisfied"

[[record]]
compound = "CN1CCN(c2ccc(Nc3c4ccccc4nc4ccccc34)cc2)CC1.Cl.Cl.O"
label_value = "Satisfied"


###

Below: a set of entries, each annotated with reported Population Pyknosed Nuclei (%).
System: Fibroblast
Assay comment: Multiplex assay against human fibroblast
Format: toxicity, cell-based
Applied conditions: 12 h, 10 µM, compound concentration 10 uM, replicate 2
Endpoint name: Population Pyknosed Nuclei (%)

[[record]]
compound = "Cc1cc(O)c(-c2ccc([C@@H](C)CN(C)C)cc2)c2c1[nH]c(=O)c1sccc12"
value_measured = "15%"

[[record]]
compound = "COc1ccc2c(c1OCc1ccccc1)C[C@@H](C(=O)O)N(C(=O)C(c1ccccc1)c1ccccc1)C2 [OLODANRIGAN]"
value_measured = "26%"

[[record]]
compound = "O=C(Nc1cc(-c2ccccc2)nn1-c1ccccc1F)c1ccc([N+](=O)[O-])cc1"
value_measured = "26%"

[[record]]
compound = "Cn1cc(C(=O)OCC2CCN(CCNS(C)(=O)=O)CC2)c2ccccc21"
value_measured = "16%"

[[record]]
compound = "COc1cc(C(=O)N2CC[C@@H](O)[C@@H](N)C2)cc2nc(-c3cc4ccccc4n3CC3CC3)n(C)c12.Cl"
value_measured = "25%"

[[record]]
compound = "CCCCC[C@H](O)/C=C/[C@H]1[C@H](O)CC(=O)[C@@H]1CCCCCCC(=O)O [ALPROSTADIL]"
value_measured = "31%"

[[record]]
compound = "O=C(NCCNCC(O)COc1ccc(O)cc1)N1CCOCC1.O=C(NCCNCC(O)COc1ccc(O)cc1)N1CCOCC1.O=C(O)/C=C/C(=O)O (stereo not drawn) [XAMOTEROL FUMARATE]"
value_measured = "20%"

[[record]]
compound = "COc1c(Nc2ccc(S(C)(=O)=O)nc2C)ncnc1OC1CCN(C(=O)OC(C)C)CC1 [ADP-597]"
value_measured = "28%"


###

Test system: Fibroblast
Assay comment: Multiplex assay against human fibroblast
Format: toxicity, cell-based
Applied conditions: 24 h, 10 µM, compound concentration 10 uM, replicate 2
Endpoint name: Population Pyknosed Nuclei (%)

[[record]]
molecule = "Cc1c(Cc2ccc3ccccc3n2)c2cc(F)ccc2n1CC(=O)O"
value_measured = 12

[[record]]
molecule = "COc1cc2nc(N3CCN(C(=O)COc4c(OC)cccc4C(C)C)CC3)nc(N)c2cc1OC.Cl.Cl"
value_measured = 34

[[record]]
molecule = "CN1CCC(C(=O)c2cccc(NC(=O)c3c(F)cc(F)cc3F)n2)CC1"
value_measured = 19

[[record]]
molecule = "Nc1nc(CC(=O)Nc2ccc(CCNC[C@H](O)c3ccccc3)cc2)cs1"
value_measured = 21

[[record]]
molecule = "O=C(O)CCC/C=C\\CC1C(O)CC(O)C1/C=C/C(O)COc1cccc(Cl)c1 (stereo unspecified)"
value_measured = 21

[[record]]
molecule = "COC(c1ccccc1)(c1ccccc1)[C@H](Oc1nc(C)cc(C)n1)C(=O)O"
value_measured = 26

[[record]]
molecule = "Cc1cc(O)c(-c2ccc([C@@H](C)CN(C)C)cc2)c2c1[nH]c(=O)c1sccc12"
value_measured = 18

[[record]]
molecule = "CN1C[C@H](C(=O)N[C@]2(C)O[C@@]3(O)[C@@H]4CCCN4C(=O)[C@H](Cc4ccccc4)N3C2=O)C[C@@H]2c3cccc4[nH]cc(c34)C[C@H]21.CS(=O)(=O)O [DIHYDROERGOTAMINE MESYLATE]"
value_measured = 20

[[record]]
molecule = "C[C@@H]1CC(=O)Nc2cccc(-c3ccc4c(c3)c(-c3cnn(C)c3)nn4C)c2N1"
value_measured = 29

[[record]]
molecule = "Cn1cc(C(=O)OCC2CCN(CCNS(C)(=O)=O)CC2)c2ccccc21"
value_measured = 16

[[record]]
molecule = "CCC(=O)OCC(=O)[C@@]1(OC(=O)CC)[C@@H](C)C[C@H]2[C@@H]3CCC4=CC(=O)C=C[C@]4(C)[C@@]3(Cl)[C@@H](O)C[C@@]21C [BECLOMETHASONE DIPROPIONATE]"
value_measured = 21

[[record]]
molecule = "CCCCC[C@H](O)/C=C/[C@H]1[C@H](O)CC(=O)[C@@H]1CCCCCCC(=O)O"
value_measured = 26

[[record]]
molecule = "Cc1cc(NC(=O)NCCN2CCC(O)(Cc3ccccc3)CC2)c2ccccc2n1"
value_measured = 22

[[record]]
molecule = "O=C(NCCNCC(O)COc1ccc(O)cc1)N1CCOCC1.O=C(NCCNCC(O)COc1ccc(O)cc1)N1CCOCC1.O=C(O)/C=C/C(=O)O (stereo unspecified) [XAMOTEROL FUMARATE]"
value_measured = 11

[[record]]
molecule = "C=CCN1C[C@H](C(=O)N(CCCN(C)C)C(=O)NCC)C[C@@H]2c3cccc4[nH]cc(c34)C[C@H]21"
value_measured = 9

[[record]]
molecule = "O=c1ccc2ccc(OCCCCN3CCN(c4cccc5sccc45)CC3)cc2[nH]1"
value_measured = 28


###

Tested on: HEK-293T
Assay comment: Multiplex assay against HEK293T
Type: toxicity, cell-based
Applied conditions: human, 48 h, 10 µM, compound concentration 10 uM, replicate 2
Non-standard residues stand in square brackets, D forms with d. Residues, ends and D or L forms follow the SMILES beside them.
Endpoint name: Population Mitotic Cells (%)

[[record]]
molecule = "S=C(NCCCc1c[nH]cn1)NCCCN(Cc1ccc(Cl)c(Cl)c1)c1ccc(Br)cn1"
endpoint_name = "Population Mitotic Cells (%)"
value_measured = 25

[[record]]
molecule = "CN1CCC(C(=O)c2cccc(NC(=O)c3c(F)cc(F)cc3F)n2)CC1"
endpoint_name = "Population Mitotic Cells (%)"
value_measured = 71

[[record]]
molecule = "COC(c1ccccc1)(c1ccccc1)[C@H](Oc1nc(C)cc(C)n1)C(=O)O"
endpoint_name = "Population Mitotic Cells (%)"
value_measured = 46

[[record]]
molecule = "O=c1ccc2ccc(OCCCCN3CCN(c4cccc5sccc45)CC3)cc2[nH]1"
endpoint_name = "Population Mitotic Cells (%)"
value_measured = 10

[[record]]
molecule = "CC(C)C[C@@H]1NC(=O)[C@@H](C(C)C)NC(=O)[C@@H]2CCCN2C(=O)[C@@H](CC(=O)O)NC(=O)[C@@H](Cc2c[nH]c3ccccc23)NC1=O [BQ-123] (cyclo(L[dW][dD]P[dV]))"
endpoint_name = "Population Mitotic Cells (%)"
value_measured = 59

[[record]]
molecule = "Cc1sc2c(c1C)C(c1ccc(Cl)cc1)=N[C@H](CC(=O)OC(C)(C)C)c1nnc(C)n1-2"
endpoint_name = "Population Mitotic Cells (%)"
value_measured = 44

[[record]]
molecule = "Cc1nn(C)c2nc(NNC(=O)Nc3cc(Cl)nc(Cl)c3)cc(C(C)C)c12"
endpoint_name = "Population Mitotic Cells (%)"
value_measured = 55

[[record]]
molecule = "Nc1nc(CC(=O)Nc2ccc(CCNC[C@H](O)c3ccccc3)cc2)cs1"
endpoint_name = "Population Mitotic Cells (%)"
value_measured = 71

